# reported pIC50; entries follow
Molecular target: human TLR9 (Homo sapiens, UniProt Q9NR96)
Sequence (Q9NR96 26-1032): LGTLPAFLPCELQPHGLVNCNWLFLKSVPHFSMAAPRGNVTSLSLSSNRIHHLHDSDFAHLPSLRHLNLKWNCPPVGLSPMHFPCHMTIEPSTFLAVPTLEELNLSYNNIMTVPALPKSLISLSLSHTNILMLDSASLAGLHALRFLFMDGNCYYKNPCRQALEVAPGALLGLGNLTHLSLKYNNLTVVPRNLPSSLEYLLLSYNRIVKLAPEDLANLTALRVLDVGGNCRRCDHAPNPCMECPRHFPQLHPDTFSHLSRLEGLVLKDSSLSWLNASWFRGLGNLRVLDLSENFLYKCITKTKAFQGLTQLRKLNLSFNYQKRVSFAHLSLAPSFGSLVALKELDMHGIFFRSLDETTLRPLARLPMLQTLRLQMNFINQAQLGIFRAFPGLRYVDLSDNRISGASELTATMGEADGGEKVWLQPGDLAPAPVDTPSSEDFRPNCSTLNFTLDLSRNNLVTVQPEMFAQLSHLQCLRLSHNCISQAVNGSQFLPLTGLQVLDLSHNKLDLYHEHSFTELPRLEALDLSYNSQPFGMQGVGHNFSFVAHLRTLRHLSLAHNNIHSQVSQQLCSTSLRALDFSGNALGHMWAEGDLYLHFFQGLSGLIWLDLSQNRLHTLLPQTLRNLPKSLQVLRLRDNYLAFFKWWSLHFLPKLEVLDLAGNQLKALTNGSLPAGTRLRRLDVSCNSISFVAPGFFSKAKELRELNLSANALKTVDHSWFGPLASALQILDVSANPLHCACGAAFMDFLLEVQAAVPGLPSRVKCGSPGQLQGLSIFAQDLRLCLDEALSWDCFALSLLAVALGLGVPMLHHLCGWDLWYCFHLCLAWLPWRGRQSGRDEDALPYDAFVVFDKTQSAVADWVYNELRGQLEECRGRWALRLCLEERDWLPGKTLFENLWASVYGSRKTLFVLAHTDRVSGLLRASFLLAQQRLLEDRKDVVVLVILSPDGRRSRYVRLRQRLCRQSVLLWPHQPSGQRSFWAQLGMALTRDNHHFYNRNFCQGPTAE
Assay: TLR9 inhibition reporter assay (HEK-Blue cells, SEAP reporter, ODN2006 stimulation)
Conditions: HEK-Blue cells overexpressing human TLR9, SEAP reporter, ODN2006 5 nM
Keep it numeric: pIC50 is minus log10 of the concentration in mol/L.

>  <compound>
COc1cc(-c2[nH]c3sc(C4CCN(CC(C)(C)C)CC4)nc3c2C(C)C)cn2ncnc12

>  <pIC50>
5.48

$$$$
>  <compound>
COc1cc(-c2[nH]c3sc(C4CCN(CC(C)(C)O)CC4)nc3c2C(C)C)cn2ncnc12

>  <pIC50>
5.11

$$$$
>  <compound>
Cc1cc(-c2[nH]c3sc(C(=O)NCCN(C)C)nc3c2C(C)C)cn2ncnc12

>  <pIC50>
5.03

$$$$

Next compound, pIC50 to be filled in.
IN: Item under review: Cc1c(-c2[nH]c3sc(C4CCC(NCC5(S(C)(=O)=O)CC5)CC4)nc3c2C(C)C)cn2ncnc2c1C (single isomer, unassigned) [Example 214] . Reported pIC50?
OUT: 4.99
